B1: Gamma-crystallin C, residues 4 to 79; numbered along this chain, P07315 (parent)
chain: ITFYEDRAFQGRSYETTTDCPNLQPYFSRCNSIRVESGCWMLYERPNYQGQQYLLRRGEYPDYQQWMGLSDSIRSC

variants of: B1; assay: abundance fitness (aPCA) (normalised: wild type 0, dead -1); higher = more abundant; growth selection in yeast, the domain comes from the species named; conditions: Homo sapiens
Give Y when the value for abundance fitness is at least -0.04. Give N when it is less.

Solved entries:
[
  {
    "VARIANT DESCRIPTION": "Y53V",
    "LABEL CLASS": "Y"
  },
  {
    "VARIANT DESCRIPTION": "G50C",
    "LABEL CLASS": "N"
  },
  {
    "VARIANT DESCRIPTION": "S75G",
    "LABEL CLASS": "N"
  }
]

// switching to the query variant
Please tell me: is the variant R29M at or over -0.04 in terms of abundance fitness? Y
